# Tested on: NCI-H1944
# TEST: 3D cell viability (CTG)
# Type: cell-based
# EXPERIMENTAL CONTEXT: Homo sapiens; NCI-H1944, KRAS G13D, 3D culture
OBSERVABLE: IC50

Nc1nc(N2CCC3(CCC[C@H]3N)CC2)cnc1Sc1ccnc(Cl)c1Cl	> 10 µM

----------
# System: KYSE-410
# TEST: 3D cell viability (CTG)
# Format: cell-based
# EXPERIMENTAL CONTEXT: Homo sapiens; KYSE-410, KRAS G12C, 3D culture
OBSERVABLE: IC50

Nc1nc(N2CCC3(CCC[C@H]3N)CC2)cnc1Sc1ccnc(Cl)c1Cl	0.1 µM
